Just for reference, PubChem BioAssay (NCI) is where these values come from.

Below, each entry is listed alongside its reported TGI.
system: HCT-116 colon; assay: NCI tumour cell line growth inhibition, 48 h

CC(=O)ON(C(C)=O)c1ccc(-c2nc3ccccc3s2)cc1; > 54.7 µM
COc1cc(C2SCC(=O)N2c2cc(Cl)c(Cl)cc2Cl)cc(OC)c1OC (stereo not given); > 100 µM
O=C(Nc1cccc(-n2ccc3c(NC(=O)c4ccccc4)nccc32)c1)c1ccc(N2CCOCC2)c(C(F)(F)F)c1; > 100 µM
O=c1sc2c(s1)SSSSS2; > 50 µM
CN=C(N)N/N=C(\C)c1ccc2c(c1)Cc1cc(/C(C)=N/NC(N)=NC)ccc1-2; > 100 µM
CC1(C)[C@H](C(=O)O)N2C(=O)[C@@H](NS(=O)(=O)c3ccc([N+](=O)[O-])cc3)[C@H]2S1(=O)=O; > 100 µM

Recorded TGI for CCOC(=O)c1cnn2c1ncc1c(=O)n(NC(N)=O)ccc12 , please?
> 100 µM

Next: Cc1ccc(S(=O)(=O)OC2CCN(C)CC2)cc1
> 100 µM

Next: Cc1ccccc1NC(=O)C(=O)C(C#N)c1ccc(Cl)cc1 (stereo not given)
> 100 µM

Next: CCNC(C)Cc1ccccc1 (stereo not given)
> 100 µM

Next: O=C(Nc1ccc(Cl)cc1Cl)C1C(=O)N(c2ccc(Cl)cc2Cl)C(=O)/C1=N\Nc1ccc([N+](=O)[O-])cc1[N+](=O)[O-] (stereo not given)
> 100 µM

Next: Cc1cccc(NC(=O)CCc2ccc(N3C(N)=NC(N)=NC3(C)C)cc2)c1
> 100 µM

Next: Cc1ccc([N+](=O)[O-])cc1NC(=O)Nc1cccc(F)c1
> 100 µM

Next: CN(C)CCOc1ccc2[nH]c(C(=O)N3CC(CCl)c4c3cc(N)c3ccccc43)cc2c1 (stereo not given)
3.63 µM

Next: O=C(O)c1cc2ccccc2c(N=Nc2ccccc2)c1O
> 100 µM

Next: C=C(C)C(=O)O[C@H]1C/C(CO)=C/CCC(=C)C(OC(C)=O)[C@H]2OC(=O)C(=C)[C@H]12 (stereo not given in full)
13.7 µM

Next: Cc1ccc2c3c1O[C@H]1c4[nH]c5ccccc5c4C[C@@]4(O)[C@@H](C2)N(C)CC[C@]314
31 µM

* * *

test system: NCI-H460 lung; test: NCI tumour cell line growth inhibition, 48 h
Below, each entry is listed alongside its reported TGI.

Worked cases, TGI given:
COc1cc(/C=C/c2ccncc2)cc(OC)c1OC; > 100 µM
CC(NS(=O)(=O)c1ccc([N+](=O)[O-])cc1)C(=O)O (centres undefined); > 100 µM
COc1ccccc1/C=C/C1=NN(c2cccc(S(=O)(=O)O)c2)C2(C1)SCC(=O)N2c1nc2ccccc2s1 (centres undefined); > 100 µM
O=C1C(Cl)=C(Nc2cccc(Cl)c2)C(=O)N1Cc1ccccc1; 27.9 µM
N=C(N)c1ccc(OCc2cccc(COc3ccc(C(=N)N)cc3)c2)cc1; 20 µM

What TGI appears in the records for this compound with NCI-H460 lung? O=[N+]([O-])c1nc(-c2ccccn2)[nH]c1[N+](=O)[O-]
> 100 µM

Next: OC1[C@H]([C@H]2CCCC[C@@H]2O)CCC[C@@H]1[C@@H]1CCCC[C@H]1O (some centres undefined)
> 100 µM

Next: COc1cc(C2SCC(=O)N2c2cc(Cl)c(Cl)cc2Cl)cc(OC)c1OC (centres undefined)
> 100 µM

Next: CCCCCCCCCCCCNC(C)=O
32.7 µM

Next: CCCCC[C@H](O)/C=C/[C@@H]1[C@@H](C/C=C\CCCC(=O)O)[C@@H](O)C[C@H]1O
> 100 µM
